target under test: albumin (Homo sapiens, UniProt P02768)
Sequence (P02768 whole entry): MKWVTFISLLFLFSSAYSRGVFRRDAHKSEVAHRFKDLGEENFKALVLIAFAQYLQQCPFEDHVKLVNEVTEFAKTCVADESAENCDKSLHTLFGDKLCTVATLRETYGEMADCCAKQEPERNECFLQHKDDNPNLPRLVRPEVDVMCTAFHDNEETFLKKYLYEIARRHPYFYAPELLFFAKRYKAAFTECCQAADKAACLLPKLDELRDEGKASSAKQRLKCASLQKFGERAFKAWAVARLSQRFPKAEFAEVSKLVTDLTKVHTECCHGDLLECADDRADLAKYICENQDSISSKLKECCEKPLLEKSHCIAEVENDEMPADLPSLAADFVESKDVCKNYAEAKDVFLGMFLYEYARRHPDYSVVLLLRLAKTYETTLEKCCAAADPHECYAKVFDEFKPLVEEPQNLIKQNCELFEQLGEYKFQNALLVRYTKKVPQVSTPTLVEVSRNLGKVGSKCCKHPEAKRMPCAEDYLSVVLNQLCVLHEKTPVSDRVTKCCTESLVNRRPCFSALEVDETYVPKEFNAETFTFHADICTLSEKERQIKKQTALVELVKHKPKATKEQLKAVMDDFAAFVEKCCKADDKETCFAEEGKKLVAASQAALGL
experiment notes: Percentage plasma protein binding towards human serum albumin
Format: cell-free
condition info: read-out: PB (converted)

compound	fraction unbound
Cc1ccc(C(=O)c2ccc(CC(=O)O)n2C)cc1 [TOLMETIN]	0.004
CC(C)Cc1ccc([C@@H](C)C(=O)NCCCN2CCCCC2)cc1	0.149
CCCNC(=O)NS(=O)(=O)c1ccc(Cl)cc1 [CHLORPROPAMIDE]	0.04
CS(=O)(=O)Nc1ccc([N+](=O)[O-])cc1Oc1ccccc1 [NIMESULIDE]	0.1
Cc1ccc(S(=O)(=O)NC(=O)NN2CCCCCC2)cc1 [TOLAZAMIDE]	0.03
C[C@@H](C(=O)NCCN1CCCC1)c1ccc(OS(=O)(=O)C(F)(F)F)cc1	0.3
